Experiment Description: in vitro
Format: cell-based
Cond: human, HepG2 or HepG2.117 cells, 3-days incubation (unmarked values), ATPlite; mean value
Listing of entries alongside the reported CC50 at 3 days.

Previously resolved entries follow.
COc1ccccc1-n1c(NCc2ccc(F)cc2F)nc2c(c1=O)CCN(C(=O)c1ccc(Cl)c(Cl)c1)C2: 23.3 µM
COc1ccc(CNc2nc3c(c(=O)n2-c2ccc(-n4cccn4)cc2)CCN(C(=O)c2ccc(Cl)c(Cl)c2)C3)cc1: > 50 µM

So, CNC(=O)c1nnc(-n2c(NC(C)C)nc3c(c2=O)C[C@@H](C)N(C(=O)c2ccc(Cl)c(Cl)c2)C3)[nH]1 ? Its CC50 at 3 days was > 50 µM

So, CC(C)Nc1nc2c(c(=O)n1-c1ccc(Br)cc1)C[C@@H](C)N(C(=O)c1ccc(Cl)c(Cl)c1)C2 ? Its CC50 at 3 days was > 50 µM

So, CC(C)Nc1nc2c(c(=O)n1-c1ccc(S(C)(=O)=O)cc1)CCN(C(=O)c1ccc3sccc3c1)C2 ? Its CC50 at 3 days was > 50 µM

So, CC(C)Nc1nc2c(c(=O)n1-c1ccc(S(C)(=O)=O)cc1)CCN(C(=O)c1cc3ccccc3o1)C2 ? Its CC50 at 3 days was > 50 µM

So, CC(C)Nc1nc2c(c(=O)n1-c1ccc(-c3cccc(N4CCOCC4)n3)cc1)CCN(C(=O)c1ccc(Cl)c(Cl)c1)C2 ? Its CC50 at 3 days was 7.8 µM

---

Test system: HBV (HepG2.117 cell line, inducibly HBV producing)
Experiment Description: Anti-HBV activity: intracellular HBV DNA by real-time PCR in HepG2.117 cells after 3 days of treatment
Format: cell-based, hepatitis B virus
Cond: Hepatitis B virus, HepG2.117, 72 h, HepG2.117 cells, 3 days of treatment, intracellular HBV DNA by real-time PCR; mean value; read-out: EC50 (μM, mean value)
Result Type: EC50 (µM)
The figure you give is taken to be in µM; do not add the unit.

# lookup: Cc1cc(C(=O)N2CCc3c(nc(NC(C)C)n(-c4ccc(S(C)(=O)=O)cc4)c3=O)C2)ccc1Cl on HBV (HepG2.117 cell line, inducibly HBV producing), EC50 = 1.58

---

System: HBV (HepG2.117 cell line, inducibly HBV producing)
Experiment Description: Anti-HBV activity: intracellular HBV DNA by real-time PCR in HepG2.117 cells after 3 days of treatment
Format: cell-based, hepatitis B virus
Cond: Hepatitis B virus, HepG2.117, 72 h, HepG2.117 cells, 3 days of treatment, intracellular HBV DNA by real-time PCR; mean value; read-out: EC50 (μM, mean value)
Result Type: EC50 (µM)
The figure you give is taken to be in µM; do not add the unit.

Previously resolved entries follow.
CNC(=O)c1ccc(-n2c(NC(C)C)nc3c(c2=O)C[C@@H](C)N(C(=O)c2ccc(Cl)c(Cl)c2)C3)nn1: 0.16
CC(C)Nc1nc2c(c(=O)n1-c1ccc(C(=O)NC3COC3)cc1)C[C@@H](C)N(C(=O)c1ccc(Cl)c(Cl)c1)C2: 0.82
COc1ccccc1-n1c(OC)nc2c(c1=O)CCN(C(=O)c1ccc(Cl)c(Cl)c1)C2: 4.59
COc1ccccc1-n1c(NC(C)C2CC2)nc2c(c1=O)CCN(C(=O)c1ccc(Cl)c(Cl)c1)C2 (stereo not drawn): 2.68
CC(C)Nc1nc2c(c(=O)n1-c1ccc(-c3nccn3C)cc1Cl)C[C@@H](C)N(C(=O)c1ccc(Cl)c(Cl)c1)C2: 0.12
C#C[C@H]1CCCN1c1nc2c(c(=O)n1-c1ccc(C(=O)NC)cc1)C[C@@H](C)N(C(=O)c1ccc(Cl)c(Cl)c1)C2 (single isomer, unassigned): 0.23
CNC(=O)c1ccc(-n2c(N3CC[C@H]3C)nc3c(c2=O)C[C@@H](C)N(C(=O)c2ccc(Cl)c(Cl)c2)C3)cc1 (single isomer, unassigned): 0.09
CC(C)Nc1nc2c(c(=O)n1-c1ccc(S(C)(=O)=O)cc1)C[C@H](c1ccc(F)cc1)N(C(=O)c1ccc(Cl)c(Cl)c1)C2 (single isomer, unassigned) [Compound C110B]: 6.38

So, CNC(=O)c1ccc(-n2c(NCc3ccc(OC)cc3)nc3c(c2=O)CCN(C(=O)c2ccc(Cl)c(Cl)c2)C3)cc1 ? Its EC50 was 0.44

So, COc1ccc(CNc2nc3c(c(=O)n2-c2ccc(F)c(C#N)c2)CCN(C(=O)c2ccc(Cl)c(Cl)c2)C3)cc1 ? Its EC50 was 1.58

So, CNC(=O)c1ccc(-n2c(N[C@@H](c3ccccc3)C3CC3)nc3c(c2=O)C[C@@H](C)N(C(=O)c2ccc(Cl)c(Cl)c2)C3)cc1 (single isomer, unassigned) ? Its EC50 was 0.37

---

Tested on: HBV (HepG2.117 cell line, inducibly HBV producing)
Experiment Description: Anti-HBV activity: intracellular HBV DNA by real-time PCR in HepG2.117 cells after 3 days of treatment
Assay type: cell-based, hepatitis B virus
Cond: Hepatitis B virus, HepG2.117, 72 h, HepG2.117 cells, 3 days of treatment, intracellular HBV DNA by real-time PCR; mean value; read-out: EC50 (μM, mean value)
Result Type: EC50 (µM)
The figure you give is taken to be in µM; do not add the unit.

CC(C)Nc1nc2c(c(=O)n1-c1ccc(-c3nccn3C)cc1)CCN(C(=O)c1ccc(Cl)c(Cl)c1)C2: 0.42
CC(C)Nc1nc2c(c(=O)n1-c1ccc(-c3cnc[nH]3)cc1)C[C@@H](C)N(C(=O)c1ccc(Cl)c(Cl)c1)C2: 0.36
CNC(=O)c1ccc(-n2c(N[C@H]3CCCC3(C)C)nc3c(c2=O)C[C@@H](C)N(C(=O)c2ccc(Cl)c(Cl)c2)C3)cc1 (single isomer, unassigned): 0.21
CNC(=O)c1ccc(-n2c(N[C@@H](C)c3cccnc3OC)nc3c(c2=O)C[C@@H](C)N(C(=O)c2ccc(Cl)c(Cl)c2)C3)cc1 (relative stereo): 0.12

So, COc1ccc(CNc2nc3c(c(=O)n2C(C)C)CCN(C(=O)c2ccc(Cl)c(Cl)c2)C3)cc1 ? Its EC50 was 2.77

So, COc1ccc(CN(C)c2nc3c(c(=O)[nH]2)CCN(C(=O)c2ccc(Cl)c(Cl)c2)C3)cc1 ? Its EC50 was 2.63

So, COc1ccc(CNc2nc3c(c(=O)n2-c2ccnnc2)CCN(C(=O)c2ccc(Cl)c(Cl)c2)C3)cc1 ? Its EC50 was 1.13

---

System: HBV (HepG2.117 cell line, inducibly HBV producing)
Experiment Description: Anti-HBV activity: intracellular HBV DNA by real-time PCR in HepG2.117 cells after 3 days of treatment
Format: cell-based, hepatitis B virus
Cond: Hepatitis B virus, HepG2.117, 72 h, HepG2.117 cells, 3 days of treatment, intracellular HBV DNA by real-time PCR; mean value; read-out: EC50 (μM, mean value)
Listing of entries alongside the reported log10(EC50).
Log scale reminder: EC50 in µM, then log10 taken.

Previously resolved entries follow.
COc1ccccc1-n1c(N2CCCC2)nc2c(c1=O)CCN(C(=O)c1ccc(Cl)c(Cl)c1)C2: 0.96
CNC(=O)c1ccc(-n2c(N[C@@H](C)c3ccccc3F)nc3c(c2=O)C[C@@H](C)N(C(=O)c2ccc(Cl)c(Cl)c2)C3)cc1: -0.89
CNC(=O)c1ccc(-n2c(N[C@H](C)c3ccncc3)nc3c(c2=O)C[C@@H](C)N(C(=O)c2ccc(Cl)c(Cl)c2)C3)cc1 (single isomer, unassigned) [Compound C375a]: 0.50
Cc1coc2ccc(C(=O)N3CCc4c(nc(NC(C)C)n(-c5ccc(S(C)(=O)=O)cc5)c4=O)C3)cc12: 0.83
COc1ccccc1-n1c(N)nc2c(c1=O)CC(C)N(C(=O)c1ccc(Cl)c(Cl)c1)C2 (stereo not drawn): 0.01

# lookup: CNC(=O)c1ccc(-n2c(NC(C)C)nc3c(c2=O)CCN(C(=O)c2ccc(Cl)c(Cl)c2)C3)cc1F on HBV (HepG2.117 cell line, inducibly HBV producing), log10(EC50) = -0.55

---

System: HBV (HepG2.117 cell line, inducibly HBV producing)
Experiment Description: Anti-HBV activity: intracellular HBV DNA by real-time PCR in HepG2.117 cells after 3 days of treatment
Type: cell-based, hepatitis B virus
Cond: Hepatitis B virus, HepG2.117, 72 h, HepG2.117 cells, 3 days of treatment, intracellular HBV DNA by real-time PCR; mean value; read-out: EC50 (μM, mean value)
Threshold 1 µM: EC50 strictly smaller gives 1.0, otherwise 0.0.

Here's what some known entries look like.
CNC(=O)c1ccc(-n2c(NC(C)C)nc3c(c2=O)C[C@@H](C)N(C(=O)c2ccc(Cl)c(Cl)c2)C3)cc1Cl: 1.0
Cc1cc(-c2ccc(-n3c(NC(C)C)nc4c(c3=O)C[C@@H](C)N(C(=O)c3ccc(Cl)c(Cl)c3)C4)cc2)n[nH]1: 1.0
COc1ccccc1-n1c(N[C@@H](C)C(F)(F)F)nc2c(c1=O)CCN(C(=O)c1ccc(Cl)c(Cl)c1)C2: 0.0
CC(C)Nc1nc2c(c(=O)n1-c1ccc(S(C)(=O)=O)cc1)[C@@H](C)CN(C(=O)c1ccc(Cl)c(Cl)c1)C2 (single isomer, unassigned) [Compound C154A]: 0.0
CC(C)Nc1nc2c(c(=O)[nH]1)CCN(C(=O)c1ccc(Cl)c(Cl)c1)C2: 0.0

Moving on to another molecule below.
Would you kindly verify if EC50 of CNC(=O)c1ccc(-n2c(NCc3c[nH]c4ccccc34)nc3c(c2=O)C[C@@H](C)N(C(=O)c2ccc(Cl)c(Cl)c2)C3)cc1 is strictly less than 1 µM?
0.0
